# assayed_system: Gamma-aminobutyric acid receptor subunit alpha-1 (Homo sapiens)
# Sequence (P14867 whole entry): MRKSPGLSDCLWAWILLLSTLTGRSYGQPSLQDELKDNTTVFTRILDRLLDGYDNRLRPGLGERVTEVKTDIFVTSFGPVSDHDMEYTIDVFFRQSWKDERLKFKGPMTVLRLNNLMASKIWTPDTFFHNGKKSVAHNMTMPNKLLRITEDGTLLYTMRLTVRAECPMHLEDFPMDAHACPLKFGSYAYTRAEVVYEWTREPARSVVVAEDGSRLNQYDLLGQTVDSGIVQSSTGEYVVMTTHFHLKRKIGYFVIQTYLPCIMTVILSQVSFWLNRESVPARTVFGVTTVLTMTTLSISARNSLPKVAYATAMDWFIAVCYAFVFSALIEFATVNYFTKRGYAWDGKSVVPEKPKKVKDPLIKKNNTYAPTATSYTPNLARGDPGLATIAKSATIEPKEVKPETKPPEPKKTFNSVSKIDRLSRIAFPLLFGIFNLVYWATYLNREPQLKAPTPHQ
# test_summary: Selectivity interaction (GPCR panel (PDSP screen)) EUB0000704a GABRA1
endpoint: Ki (µM)
Express the result in µM but write the number alone.

Quick one: Ki of `Cc1ccc(-c2cnc([C@@]3(O)CC[C@H](C(=O)O)C(C)(C)C3)s2)cc1Nc1cccc(C(F)(F)F)n1` ?
0.774

----------
# assayed_system: Histone-lysine N-methyltransferase KMT5B (Homo sapiens)
# Sequence (Q4FZB7 whole entry): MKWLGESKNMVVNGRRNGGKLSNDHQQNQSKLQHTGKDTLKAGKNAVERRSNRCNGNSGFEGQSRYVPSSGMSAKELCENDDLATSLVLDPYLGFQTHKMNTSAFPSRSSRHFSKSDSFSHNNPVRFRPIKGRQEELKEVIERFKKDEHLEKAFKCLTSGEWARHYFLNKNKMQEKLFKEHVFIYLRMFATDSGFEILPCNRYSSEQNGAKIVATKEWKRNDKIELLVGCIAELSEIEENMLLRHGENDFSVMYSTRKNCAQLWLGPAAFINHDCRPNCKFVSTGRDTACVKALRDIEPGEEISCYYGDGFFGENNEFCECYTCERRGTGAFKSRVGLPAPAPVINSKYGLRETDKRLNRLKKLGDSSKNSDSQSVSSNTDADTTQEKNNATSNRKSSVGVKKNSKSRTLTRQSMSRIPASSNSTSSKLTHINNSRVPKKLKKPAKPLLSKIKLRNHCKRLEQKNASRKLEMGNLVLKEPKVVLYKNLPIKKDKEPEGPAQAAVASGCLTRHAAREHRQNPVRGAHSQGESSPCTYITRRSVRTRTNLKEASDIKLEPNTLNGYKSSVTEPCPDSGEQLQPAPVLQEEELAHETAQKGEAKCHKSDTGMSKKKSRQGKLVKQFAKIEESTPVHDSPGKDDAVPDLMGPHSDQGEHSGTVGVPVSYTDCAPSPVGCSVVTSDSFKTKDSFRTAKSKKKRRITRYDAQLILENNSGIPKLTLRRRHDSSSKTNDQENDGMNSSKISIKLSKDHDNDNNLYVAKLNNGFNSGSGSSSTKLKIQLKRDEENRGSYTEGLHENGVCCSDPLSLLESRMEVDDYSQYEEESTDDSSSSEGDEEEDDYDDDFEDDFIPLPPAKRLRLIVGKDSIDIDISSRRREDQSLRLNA
# test_summary: Selectivity interaction (Methyltransferase panel) EUB0000196bCl SUV420H1
endpoint: EC50

Quick one: EC50 of `O=C([C@@H](Cc1cccc(C(F)(F)F)c1)NS(=O)(=O)c1cc(F)c2c(c1)CCNC2)N1CCCC1` ?
> 10 µM

----------
# assayed_system: Aurora kinase B (Homo sapiens)
# Sequence (Q96GD4 whole entry): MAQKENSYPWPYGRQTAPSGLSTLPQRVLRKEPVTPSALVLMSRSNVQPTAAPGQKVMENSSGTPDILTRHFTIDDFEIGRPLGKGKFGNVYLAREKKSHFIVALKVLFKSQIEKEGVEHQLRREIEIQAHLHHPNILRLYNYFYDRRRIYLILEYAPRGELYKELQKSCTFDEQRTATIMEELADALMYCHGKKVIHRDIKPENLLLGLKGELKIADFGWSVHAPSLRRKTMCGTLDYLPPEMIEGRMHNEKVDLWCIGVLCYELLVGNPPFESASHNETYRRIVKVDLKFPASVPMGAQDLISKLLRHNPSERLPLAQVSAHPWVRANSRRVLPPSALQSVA
# test_summary: Selectivity interaction (Enzymatic assay) EUB0000178b AURKB
endpoint: IC50 (nM)
Express the result in nM but write the number alone.

Quick one: IC50 of `CN1C(=O)c2sccc2N(C)c2nc(Nc3ccc(S(N)(=O)=O)cc3)ncc21` ?
19.4

----------
# assayed_system: Receptor-type tyrosine-protein kinase FLT3 (Homo sapiens, UniProt P36888, D835V)
# test_summary: Selectivity interaction (NanoBRET assay (HEK293T cells)) EUB0000321b FLT3
endpoint: pIC50
Bear in mind: pIC50 is minus log10 of a mol/L concentration; give just that figure.

Could you share what pIC50 was measured for `CN1CCN(C(=O)C(C)(C)c2ccc(C(=O)Nc3cn4cc(-c5ccncc5)ccc4n3)cc2)CC1` , tested on Receptor-type tyrosine-protein kinase FLT3 (Homo sapiens, UniProt P36888, D835V)?
3.86

----------
# assayed_system: Aurora kinase A (Homo sapiens, UniProt O14965)
# Sequence (O14965 whole entry): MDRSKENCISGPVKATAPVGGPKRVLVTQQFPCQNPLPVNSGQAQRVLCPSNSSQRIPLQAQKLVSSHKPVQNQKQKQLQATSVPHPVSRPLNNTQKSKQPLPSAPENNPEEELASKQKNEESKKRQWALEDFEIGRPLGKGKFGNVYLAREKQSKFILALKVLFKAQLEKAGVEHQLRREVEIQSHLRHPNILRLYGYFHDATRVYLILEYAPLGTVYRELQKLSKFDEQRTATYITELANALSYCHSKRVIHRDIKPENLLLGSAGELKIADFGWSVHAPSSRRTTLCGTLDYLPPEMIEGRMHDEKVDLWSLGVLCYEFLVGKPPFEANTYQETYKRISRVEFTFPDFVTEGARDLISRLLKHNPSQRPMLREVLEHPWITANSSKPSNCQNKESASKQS
# test_summary: Selectivity interaction (Enzyme panel (Invitrogen)) EUB0000730a STK6
endpoint: pIC50
Bear in mind: pIC50 is minus log10 of a mol/L concentration; give just that figure.

Quick one: pIC50 of `CCOC(=O)c1cc2cc(-c3cc(C(=O)NCc4ccc(C(=O)O)cc4)nn3C)ccc2[nH]1` ?
5.89

----------
# assayed_system: Chymotrypsin-like elastase family member 1 (Homo sapiens)
# Sequence (Q9UNI1 whole entry): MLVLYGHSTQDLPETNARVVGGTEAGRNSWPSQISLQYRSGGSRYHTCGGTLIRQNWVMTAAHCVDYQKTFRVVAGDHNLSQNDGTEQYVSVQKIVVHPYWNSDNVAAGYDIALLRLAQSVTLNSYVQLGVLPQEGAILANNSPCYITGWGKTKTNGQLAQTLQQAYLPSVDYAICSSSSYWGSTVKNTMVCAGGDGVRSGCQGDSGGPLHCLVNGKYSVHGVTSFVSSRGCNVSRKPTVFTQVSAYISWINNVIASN
# test_summary: Selectivity interaction (Serine protease panel) EUB0000735a CELA1
endpoint: IC50

Quick one: IC50 of CC(=O)C1=C(C)N(c2cccc(C(F)(F)F)c2)C(=O)N[C@@H]1c1ccc(C#N)nc1 [BAY-678] ?
> 30 µM

----------
# assayed_system: Mitogen-activated protein kinase kinase kinase 5 (Homo sapiens)
# Sequence (Q99683 whole entry): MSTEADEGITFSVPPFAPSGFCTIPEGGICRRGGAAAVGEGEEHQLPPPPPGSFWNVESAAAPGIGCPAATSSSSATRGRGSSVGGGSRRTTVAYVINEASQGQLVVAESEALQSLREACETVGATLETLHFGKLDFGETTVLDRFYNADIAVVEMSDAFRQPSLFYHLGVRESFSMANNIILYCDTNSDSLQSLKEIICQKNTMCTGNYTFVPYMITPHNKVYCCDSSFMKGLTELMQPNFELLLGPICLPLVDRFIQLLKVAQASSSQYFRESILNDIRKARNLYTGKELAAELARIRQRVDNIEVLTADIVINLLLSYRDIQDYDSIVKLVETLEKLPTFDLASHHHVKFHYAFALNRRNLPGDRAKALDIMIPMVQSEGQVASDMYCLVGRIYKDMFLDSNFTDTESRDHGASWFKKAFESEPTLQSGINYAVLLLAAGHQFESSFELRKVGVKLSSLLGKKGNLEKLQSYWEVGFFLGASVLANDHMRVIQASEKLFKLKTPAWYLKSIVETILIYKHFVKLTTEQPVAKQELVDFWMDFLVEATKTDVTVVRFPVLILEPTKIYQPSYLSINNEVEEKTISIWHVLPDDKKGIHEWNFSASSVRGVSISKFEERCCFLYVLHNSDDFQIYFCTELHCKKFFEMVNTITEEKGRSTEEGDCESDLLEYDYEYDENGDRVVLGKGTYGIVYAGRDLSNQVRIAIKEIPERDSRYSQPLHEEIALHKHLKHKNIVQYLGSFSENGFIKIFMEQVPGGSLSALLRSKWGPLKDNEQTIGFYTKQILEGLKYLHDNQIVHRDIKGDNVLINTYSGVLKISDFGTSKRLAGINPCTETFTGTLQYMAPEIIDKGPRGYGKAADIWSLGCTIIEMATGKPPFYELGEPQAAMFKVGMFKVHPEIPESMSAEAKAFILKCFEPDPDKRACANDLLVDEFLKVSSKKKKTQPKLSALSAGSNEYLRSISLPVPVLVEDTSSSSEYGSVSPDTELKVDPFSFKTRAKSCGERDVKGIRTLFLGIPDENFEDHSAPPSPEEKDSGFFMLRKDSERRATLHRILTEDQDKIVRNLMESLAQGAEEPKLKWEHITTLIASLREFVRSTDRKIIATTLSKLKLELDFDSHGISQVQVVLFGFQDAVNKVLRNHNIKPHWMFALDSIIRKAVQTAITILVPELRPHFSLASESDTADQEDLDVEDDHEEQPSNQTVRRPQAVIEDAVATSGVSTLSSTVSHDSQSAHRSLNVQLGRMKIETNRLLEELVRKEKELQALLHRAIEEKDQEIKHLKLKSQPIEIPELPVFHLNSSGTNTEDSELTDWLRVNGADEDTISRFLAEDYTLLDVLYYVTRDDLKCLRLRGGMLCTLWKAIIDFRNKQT
# test_summary: Selectivity interaction (NanoBRET assay (HEK293T cells)) EUB0000321b MAP3K5
pIC50: −log10 of the molar value.
endpoint: pIC50

Could you share what pIC50 was measured for CN1CCN(C(=O)C(C)(C)c2ccc(C(=O)Nc3cn4cc(-c5ccncc5)ccc4n3)cc2)CC1 [T3-CLK] , tested on Mitogen-activated protein kinase kinase kinase 5 (Homo sapiens)?
< 5.00

----------
# assayed_system: Polyunsaturated fatty acid 5-lipoxygenase (Homo sapiens)
# Sequence (P09917 whole entry): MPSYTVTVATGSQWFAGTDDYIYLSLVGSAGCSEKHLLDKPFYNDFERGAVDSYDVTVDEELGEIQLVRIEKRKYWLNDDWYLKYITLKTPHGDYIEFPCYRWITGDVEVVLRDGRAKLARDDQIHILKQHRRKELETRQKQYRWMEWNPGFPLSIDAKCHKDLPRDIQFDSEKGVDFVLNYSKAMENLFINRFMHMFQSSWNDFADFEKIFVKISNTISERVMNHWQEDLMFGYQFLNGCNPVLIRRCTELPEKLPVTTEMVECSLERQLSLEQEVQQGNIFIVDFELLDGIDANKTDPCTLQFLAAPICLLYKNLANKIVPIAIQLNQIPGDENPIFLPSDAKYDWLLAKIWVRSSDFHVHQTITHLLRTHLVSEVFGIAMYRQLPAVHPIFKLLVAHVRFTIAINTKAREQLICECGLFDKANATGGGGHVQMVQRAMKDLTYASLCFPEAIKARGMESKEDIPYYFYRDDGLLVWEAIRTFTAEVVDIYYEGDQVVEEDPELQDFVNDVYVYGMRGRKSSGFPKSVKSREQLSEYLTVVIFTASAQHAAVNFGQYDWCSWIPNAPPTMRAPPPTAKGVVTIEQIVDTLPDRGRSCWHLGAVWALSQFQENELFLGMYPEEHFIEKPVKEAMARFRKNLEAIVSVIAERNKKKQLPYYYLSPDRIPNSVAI
# test_summary: Selectivity interaction (MSD Pharma/Taiwan screen (enzymes and receptors) ) EUB0000296b ALOX5
endpoint: IC50 (µM)
Express the result in µM but write the number alone.

Quick one: IC50 of `CC(=O)Nc1c(C(C)=O)c(=O)n(C)c2nc(-c3ccc(Cl)cc3Cl)c(-c3ccc(Cl)cc3)cc12` ?
1.34
